Values from the supplement of paper PMC10567573

Parameter protein stability index: see the listing below.
# Method: protein stability index of a GFP-peptide fusion (GPS, HEK-293T) (PSI 1-6); higher = more stable;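 further: 24-mer peptide tiles fused after GFP, lentivirally expressed, FACS-sorted into six equal bins by GFP/DsRed ratio, decoded by Illumina sequencing, PSI is the read-weighted mean bin number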
# Experimental conditions: treatment: DMSO; c terminus: a fixed tail appended

>  <Macromolecule sequence>
LAICRPLTYSTRMSQTVQRMLVAA [OR3A1]

>  <protein stability index>
2.49

$$$$
>  <Macromolecule sequence>
RFFASSSLHHTSECTQMDHLGCMH [ALDH8A1]

>  <protein stability index>
2.87

$$$$
>  <Macromolecule sequence>
NPYHQPYISRKYFATRPGAIETAM [TPRG1]

>  <protein stability index>
2.22

$$$$
>  <Macromolecule sequence>
TGERPYECNECGKAFSRSSGLFNH [ZSCAN9]

>  <protein stability index>
2.48

$$$$
>  <Macromolecule sequence>
ETTERMKCLYYLYATLDLNAVKYV [PDS5B]

>  <protein stability index>
2.88

$$$$

* * *

# Method: protein stability index of a GFP-peptide fusion (GPS, HEK-293T) (PSI 1-6); higher = more stable
# Experimental conditions: treatment: MLN4924 1 uM, 8 h; c terminus: a fixed tail appended
Please assign a class to every record based on measured protein stability index, with ranges band A: < 3; band B: ≥ 3 and < 5; band C: ≥ 5

>  <Macromolecule sequence>
EVCCTSIVYATEKKQTKVEFPEAR [KCTD13]

>  <Assigned category>
band B

$$$$
>  <Macromolecule sequence>
LRDVNHEKAMAEWVKQQAEREAEK [SDE2]

>  <Assigned category>
band C

$$$$
>  <Macromolecule sequence>
KEISRKRRSIRYGREVELKPYIAA [PTPRD]

>  <Assigned category>
band B

$$$$
>  <Macromolecule sequence>
LIQDSPDSSTSPKGKQPTSAENSV [NANOGP8]

>  <Assigned category>
band C

$$$$
>  <Macromolecule sequence>
QGSLENMSKLLKRQNDILQVVSQG [CD207]

>  <Assigned category>
band B

$$$$
>  <Macromolecule sequence>
VLMWLLTYVGALFNGLTLLLMAVV [RTN1]

>  <Assigned category>
band A

$$$$
>  <Macromolecule sequence>
HDSANCELPLLTPCSKAVMSQALK [ETS2]

>  <Assigned category>
band B

$$$$
>  <Macromolecule sequence>
LVEELSPASEKKPVPPSEGKSRLS [BCL2L13]

>  <Assigned category>
band C

$$$$
>  <Macromolecule sequence>
FWNSPSSPSSSAASSSSPSSSSAV [RHOBTB2]

>  <Assigned category>
band B

$$$$
>  <Macromolecule sequence>
YTPDLPRADVDHAIEKAFQLWSNV [MMP1]

>  <Assigned category>
band A

$$$$
>  <Macromolecule sequence>
EDSSNQEEEGPSTFPDLESEFQAA [MAGEA3]

>  <Assigned category>
band C

$$$$
>  <Macromolecule sequence>
LSDTELTTLLRRYNIPHGPVVGST [EMD]

>  <Assigned category>
band A

$$$$
>  <Macromolecule sequence>
LRAIDFGTDEEEEEFIEEEDQEEE [TRIM63]

>  <Assigned category>
band C

$$$$
>  <Macromolecule sequence>
MSVAIRKRSWEEHVTHWMGQPFNS [DLC1]

>  <Assigned category>
band A

$$$$
>  <Macromolecule sequence>
NKINAGMYILSPAVLRRIQLQPTS [GMPPB]

>  <Assigned category>
band A

$$$$
>  <Macromolecule sequence>
QPWVEVVLALRNMKNLLFSEMWDI [MFSD9]

>  <Assigned category>
band A

$$$$
>  <Macromolecule sequence>
SVDLMLGLPAQQVGPWLGQLQELL [RSAD1]

>  <Assigned category>
band A

$$$$
>  <Macromolecule sequence>
TGFRTISSLEEIVEKQGDTIEYLK [TMEM192]

>  <Assigned category>
band B

$$$$
